# Test system: TESK1
# Measurement Parameters: concentration: 1 μM, replicates: in singlicate; n = 1;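 further: KINOMEscan kinase panel screen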
Mark each entry true if its %Inh sits below 8%, and false for all others.

{"Compound String": "Nc1ncnc2c1ncn2-c1cccc(F)c1", "Category Label": "false"}
{"Compound String": "Cc1cccc(-c2nc(Nc3ccc4c(cnn4C)c3)c3ccccc3n2)n1", "Category Label": "true"}
{"Compound String": "CCc1nc(-c2cccc(C)c2)c(-c2ccncc2)s1", "Category Label": "true"}
{"Compound String": "COc1ccc(-n2cnc3c(N)ncnc32)cc1", "Category Label": "true"}
{"Compound String": "Nc1n[nH]c2ncc(-c3ccccc3)cc12", "Category Label": "false"}
{"Compound String": "OCCCNc1nccc(-c2c(-c3cccc(C(F)(F)F)c3)nn3cc(C(F)(F)F)ccc23)n1", "Category Label": "false"}

query: Hello, I'm reviewing records and need to know if %Inh of `COc1ccc(-c2cc3c(C)nc(N)nc3n([C@H]3CC[C@H](O)CC3)c2=O)cn1` is below 8%. Could you check?
result: true

query: # strict comparison: is reported %Inh < 8%? input = `C[C@@H]1CC[C@H](C(=O)NC2CCCCC2)CN1c1cc(-c2ccc3c(N)n[nH]c3c2)nc(N)n1`
result: false

----------
# Tested on: TXK
# Measurement Parameters: concentration: 1 μM, replicates: in singlicate; n = 1
Reported Metric: %Inh (%)
One number for each entry, in %.

Recorded results for 5 molecules are shown here.
{"Molecule": "COc1ccc(CNC(=O)NC2CCN(c3ccnc(Nc4ccc(F)cc4)n3)C2)cc1 (stereo not shown) [GSK1379706]", "%Inh, %": 0}
{"Molecule": "Nc1n[nH]c2nnc(-c3ccccc3)c(-c3ccccc3)c12 [GW554060]", "%Inh, %": 12}
{"Molecule": "COc1cc(Nc2nccc(N3CCC(NC(=O)C(C)c4ccc(Cl)cc4)C3)n2)cc(OC)c1OC (stereo not shown) [GSK1379757]", "%Inh, %": 0}
{"Molecule": "CCC(=O)c1c(-c2ccccc2)c2cc(Cl)ccc2c(=O)n1Cc1ccc(C(=O)O)cc1", "%Inh, %": 0}
{"Molecule": "O=C(NCCNc1ccnc(Nc2ccc(F)cc2)n1)Nc1ccc2c(c1)OCO2 [GSK1379882]", "%Inh, %": 100}

Could I get %Inh for every one of these entries?
1. COC(=O)c1c(-c2ccccc2)c2cc(Br)ccc2c(=O)n1Cc1ccc(NC(=O)CCC(=O)O)cc1
2. O=c1cc(N2CCOCC2)nc2n(Cc3ccc(F)c(Cl)c3)ccn12 [GSK2297099]
3. Nc1nc(N)c2nc(-c3ccccc3)[nH]c2n1 [SKF-12778]
4. CCc1ccc(-c2ccc3c(c2)-c2nn(C)cc2S(=O)(=O)N3C)cc1
5. O=C1NC(=O)C(c2ccccc2)=C1Nc1cccc(O)c1 [SB-390534]
6. Nc1ncnc2c1ncn2-c1ccc(Cl)cc1 [AH2635]
7. COc1cc2ncn(-c3cc(OCc4ccncc4Br)c(C(N)=O)s3)c2cc1OC [GW854278]
8. CCS(=O)(=O)c1ccc(OC)c(Nc2ncc(-c3ccc(F)cc3)o2)c1.Cl [GW591947]

result:
1. 39
2. 0
3. 25
4. 0
5. 14
6. 5
7. 21
8. 0
